All values here come from the supplement of paper PMC10307832.

// reported relative viability for each item listed
Tested on: NCI-H2405
EXPERIMENT_NOTES: relative viability (nuclei count vs DMSO), 5 days (fraction); higher = more cells survive
CONDITION_CONTEXT: first compound 2.53 µM
# output: bare number, no unit

O=c1[nH]c2ccccc2n1C1CCN(CCCC(c2ccc(F)cc2)c2ccc(F)cc2)CC1 [Pimozide] + C[C@@H](Oc1cc(-c2cnn(C3CCNCC3)c2)cnc1N)c1c(Cl)ccc(F)c1Cl [Crizotinib] (partner 1 µM) :: 0.819

Here's the next entry for you.
GET /values?readout=relative viability&system=NCI-H2405&item= Cc1cnc(-c2cnc(NCCNc3ccc(C#N)cn3)nc2-c2ccc(Cl)cc2Cl)[nH]1 + Nc1nc2[nH]cc(CCc3ccc(C(=O)N[C@@H](CCC(=O)O)C(=O)O)cc3)c2c(=O)[nH]1 [Pemetrexed] (partner 0.2 µM)
0.468

---

System: HCC-15
EXPERIMENT_NOTES: relative viability (nuclei count vs DMSO), 5 days (fraction); higher = more cells survive
CONDITION_CONTEXT: first compound 0.005 µM
Measured relative viability accompanies every entry in the list below.
Output: the number by itself.

Below, 3 molecules whose answers are already recorded.
Nc1ccn([C@@H]2O[C@H](CO)[C@@H](O)[C@@H]2O)c(=O)n1 [Cytarabine] + Nc1ncn([C@H]2C[C@H](O)[C@@H](CO)O2)c(=O)n1 [Decitabine] (partner 2 µM) :: 0.511
COc1cc2nccc(Oc3ccc(NC(=O)Nc4cc(C)on4)c(Cl)c3)c2cc1OC [Tivozanib] + CC(=O)Nc1cccc(-n2c(=O)n(C3CC3)c(=O)c3c(Nc4ccc(I)cc4F)n(C)c(=O)c(C)c32)c1 [Trametinib] (partner 0.02 µM) :: 0.391
COc1cc2nccc(Oc3ccc(NC(=O)Nc4cc(C)on4)c(Cl)c3)c2cc1OC [Tivozanib] + N=C(N)NC(=N)NCCc1ccccc1 [Phenformin] (partner 250 µM) :: 0.421

Read the next record carefully.
Provide value of relative viability for this record tested with HCC-15: Nc1ccn([C@@H]2O[C@H](CO)[C@@H](O)[C@@H]2O)c(=O)n1 [Cytarabine] + CC(C)C[C@H](NC(=O)[C@H](Cc1ccccc1)NC(=O)c1cnccn1)B(O)O [Bortezomib] (partner 0.002 µM)
0.795

---

System: NCI-H1437
EXPERIMENT_NOTES: relative viability (nuclei count vs DMSO), 5 days (fraction); higher = more cells survive
CONDITION_CONTEXT: first compound 4 µM
MEASURED_METRIC: relative viability

Cc1sc2c(c1C)C(c1ccc(Cl)cc1)=N[C@@H](CC(=O)OC(C)(C)C)c1nnc(C)n1-2 [JQ1] + CC(C)C[C@H](NC(=O)[C@H](Cc1ccccc1)NC(=O)c1cnccn1)B(O)O [Bortezomib] (partner 0.002 µM) :: 0.194
Cc1sc2c(c1C)C(c1ccc(Cl)cc1)=N[C@@H](CC(=O)OC(C)(C)C)c1nnc(C)n1-2 [JQ1] + O=C(CCCCCCC(=O)Nc1ccccc1)NO [Vorinostat] (partner 1 µM) :: 0.34
Cc1sc2c(c1C)C(c1ccc(Cl)cc1)=N[C@@H](CC(=O)OC(C)(C)C)c1nnc(C)n1-2 [JQ1] + CS(=O)(=O)N1CCN(Cc2cc3nc(-c4cccc5[nH]ncc45)nc(N4CCOCC4)c3s2)CC1 [Pictilisib] (partner 1 µM) :: 0.168

Record lookup: for NCI-H1437, what relative viability belongs to Cc1sc2c(c1C)C(c1ccc(Cl)cc1)=N[C@@H](CC(=O)OC(C)(C)C)c1nnc(C)n1-2 [JQ1] + COc1cc2c(Oc3ccc(NC(=O)C4(C(=O)Nc5ccc(F)cc5)CC4)cc3F)ccnc2cc1OCCCN1CCOCC1 [Foretinib] (partner 0.25 µM) ?
0.384

---

Test system: NCI-H661
EXPERIMENT_NOTES: relative viability (nuclei count vs DMSO), 5 days (fraction); higher = more cells survive
CONDITION_CONTEXT: first compound 15.81 µM
MEASURED_METRIC: relative viability
Answer with the value's number alone.

Some entries whose results are on file:
O=C(O)CCCCC(CCSCc1ccccc1)SCc1ccccc1 (stereo unspecified) [CPI-613] + O=C(c1cc(Cc2n[nH]c(=O)c3ccccc23)ccc1F)N1CCN(C(=O)C2CC2)CC1 [Olaparib] (partner 8 µM) :: 0.726
O=C(O)CCCCC(CCSCc1ccccc1)SCc1ccccc1 (stereo unspecified) [CPI-613] + Cc1cc(Nc2cc(N3CCN(C)CC3)nc(Sc3ccc(NC(=O)C4CC4)cc3)n2)n[nH]1 [Tozasertib] (partner 0.1 µM) :: 0.324

Next, consider the following compound.
Need relative viability of O=C(O)CCCCC(CCSCc1ccccc1)SCc1ccccc1 (stereo unspecified) [CPI-613] + CS(=O)(=O)CCNCc1ccc(-c2ccc3ncnc(Nc4ccc(OCc5cccc(F)c5)c(Cl)c4)c3c2)o1 [Lapatinib] (partner 2 µM) , thanks.
0.367

---

Tested on: H3255
EXPERIMENT_NOTES: relative viability (nuclei count vs DMSO), 5 days (fraction); higher = more cells survive
CONDITION_CONTEXT: first compound 5 µM
MEASURED_METRIC: relative viability
// print number alone

Completed entries (count: 3):
O=C(O)CCCCC(CCSCc1ccccc1)SCc1ccccc1 (stereo not given) [CPI-613] + CS(=O)(=O)CCNCc1ccc(-c2ccc3ncnc(Nc4ccc(OCc5cccc(F)c5)c(Cl)c4)c3c2)o1 [Lapatinib] (partner 2 µM) :: 0.234
O=C(O)CCCCC(CCSCc1ccccc1)SCc1ccccc1 (stereo not given) [CPI-613] + CS(=O)(=O)N1CCN(Cc2cc3nc(-c4cccc5[nH]ncc45)nc(N4CCOCC4)c3s2)CC1 [Pictilisib] (partner 1 µM) :: 0.512
O=C(O)CCCCC(CCSCc1ccccc1)SCc1ccccc1 (stereo not given) [CPI-613] + Nc1ncn([C@H]2C[C@H](O)[C@@H](CO)O2)c(=O)n1 [Decitabine] (partner 2 µM) :: 0.626

Tell me reported relative viability for O=C(O)CCCCC(CCSCc1ccccc1)SCc1ccccc1 (stereo not given) [CPI-613] + CC(C)C[C@H](NC(=O)[C@H](Cc1ccccc1)NC(=O)c1cnccn1)B(O)O [Bortezomib] (partner 0.002 µM) , tested with H3255.
0.815

API: value(readout=relative viability, system=H3255) for record O=C(O)CCCCC(CCSCc1ccccc1)SCc1ccccc1 (stereo not given) [CPI-613] + COc1cccc2cc(-c3nc([C@H]4CC[C@H](C(=O)O)CC4)n4ncnc(N)c34)[nH]c12 [OSI-027] (partner 0.5 µM)
0.569

---

System: HOP-62
EXPERIMENT_NOTES: relative viability (nuclei count vs DMSO), 5 days (fraction); higher = more cells survive
CONDITION_CONTEXT: first compound 4 µM
MEASURED_METRIC: relative viability
Please state the value as a number alone, without comment.

Cc1sc2c(c1C)C(c1ccc(Cl)cc1)=N[C@@H](CC(=O)OC(C)(C)C)c1nnc(C)n1-2 [JQ1] + CC(C)C[C@H](NC(=O)[C@H](Cc1ccccc1)NC(=O)c1cnccn1)B(O)O [Bortezomib] (partner 0.002 µM) :: 0.111
Cc1sc2c(c1C)C(c1ccc(Cl)cc1)=N[C@@H](CC(=O)OC(C)(C)C)c1nnc(C)n1-2 [JQ1] + CC(=O)Nc1cccc(-n2c(=O)n(C3CC3)c(=O)c3c(Nc4ccc(I)cc4F)n(C)c(=O)c(C)c32)c1 [Trametinib] (partner 0.02 µM) :: 0.106
Cc1sc2c(c1C)C(c1ccc(Cl)cc1)=N[C@@H](CC(=O)OC(C)(C)C)c1nnc(C)n1-2 [JQ1] + CCNC(=O)c1noc(-c2cc(C(C)C)c(O)cc2O)c1-c1ccc(CN2CCOCC2)cc1 [Luminespib] (partner 0.01 µM) :: 0.128
Cc1sc2c(c1C)C(c1ccc(Cl)cc1)=N[C@@H](CC(=O)OC(C)(C)C)c1nnc(C)n1-2 [JQ1] + Nc1ncn([C@H]2C[C@H](O)[C@@H](CO)O2)c(=O)n1 [Decitabine] (partner 2 µM) :: 0.128

Next up:
Can you look up the measured relative viability of Cc1sc2c(c1C)C(c1ccc(Cl)cc1)=N[C@@H](CC(=O)OC(C)(C)C)c1nnc(C)n1-2 [JQ1] + Cc1cc(Nc2cc(N3CCN(C)CC3)nc(Sc3ccc(NC(=O)C4CC4)cc3)n2)n[nH]1 [Tozasertib] (partner 0.1 µM) for me?
0.122

---

System: NCI-H2170
EXPERIMENT_NOTES: relative viability (nuclei count vs DMSO), 5 days (fraction); higher = more cells survive
CONDITION_CONTEXT: first compound 0.05 µM
relative viability by entry:

Recorded relative viability, per entry:
Nc1ccn([C@@H]2O[C@H](CO)[C@@H](O)[C@@H]2O)c(=O)n1 [Cytarabine] + Cc1cc(Nc2cc(N3CCN(C)CC3)nc(Sc3ccc(NC(=O)C4CC4)cc3)n2)n[nH]1 [Tozasertib] (partner 0.1 µM) :: 0.409
Nc1ccn([C@@H]2O[C@H](CO)[C@@H](O)[C@@H]2O)c(=O)n1 [Cytarabine] + Cc1nc(Nc2ncc(C(=O)Nc3c(C)cccc3Cl)s2)cc(N2CCN(CCO)CC2)n1 [Dasatinib] (partner 0.075 µM) :: 0.533

Lab note: need relative viability with NCI-H2170 for entry COc1cc2nccc(Oc3ccc(NC(=O)Nc4cc(C)on4)c(Cl)c3)c2cc1OC [Tivozanib] + COc1cc2c(Oc3ccc(NC(=O)C4(C(=O)Nc5ccc(F)cc5)CC4)cc3F)ccnc2cc1OCCCN1CCOCC1 [Foretinib] (partner 0.25 µM) , please look it up.
0.975

Recorded relative viability for COc1cc2nccc(Oc3ccc(NC(=O)Nc4cc(C)on4)c(Cl)c3)c2cc1OC [Tivozanib] + N=C(N)NC(=N)NCCc1ccccc1 [Phenformin] (partner 250 µM) with NCI-H2170, please?
0.395

Value wanted: relative viability (NCI-H2170) of entry Nc1ccn([C@@H]2O[C@H](CO)[C@@H](O)[C@@H]2O)c(=O)n1 [Cytarabine] + CC(=O)Nc1cccc(-n2c(=O)n(C3CC3)c(=O)c3c(Nc4ccc(I)cc4F)n(C)c(=O)c(C)c32)c1 [Trametinib] (partner 0.02 µM)
0.581

// lookup relative viability | system=NCI-H2170 | key= Nc1ccn([C@@H]2O[C@H](CO)[C@@H](O)[C@@H]2O)c(=O)n1 [Cytarabine] + Cc1nc(NC(=O)N2CCC[C@H]2C(N)=O)sc1-c1ccnc(C(C)(C)C(F)(F)F)c1 [Alpelisib] (partner 2 µM)
0.562

// map Nc1ccn([C@@H]2O[C@H](CO)[C@@H](O)[C@@H]2O)c(=O)n1 [Cytarabine] + C[C@@H](Oc1cc(-c2cnn(C3CCNCC3)c2)cnc1N)c1c(Cl)ccc(F)c1Cl [Crizotinib] (partner 1 µM) to recorded relative viability (system: NCI-H2170)
0.912

Request: relative viability, test system NCI-H2170, entry COc1cc2nccc(Oc3ccc(NC(=O)Nc4cc(C)on4)c(Cl)c3)c2cc1OC [Tivozanib] + CCNC(=O)c1noc(-c2cc(C(C)C)c(O)cc2O)c1-c1ccc(CN2CCOCC2)cc1 [Luminespib] (partner 0.01 µM)
0.661

Please provide the recorded relative viability for COc1cc2nccc(Oc3ccc(NC(=O)Nc4cc(C)on4)c(Cl)c3)c2cc1OC [Tivozanib] + Nc1nc2[nH]cc(CCc3ccc(C(=O)N[C@@H](CCC(=O)O)C(=O)O)cc3)c2c(=O)[nH]1 [Pemetrexed] (partner 0.2 µM) , tested on NCI-H2170.
0.56

Report relative viability for COc1cc2nccc(Oc3ccc(NC(=O)Nc4cc(C)on4)c(Cl)c3)c2cc1OC [Tivozanib] + CS(=O)(=O)N1CCN(Cc2cc3nc(-c4cccc5[nH]ncc45)nc(N4CCOCC4)c3s2)CC1 [Pictilisib] (partner 1 µM) tested on NCI-H2170.
0.404

I'm curious: which relative viability was measured for COc1cc2nccc(Oc3ccc(NC(=O)Nc4cc(C)on4)c(Cl)c3)c2cc1OC [Tivozanib] + Cc1cc(Nc2cc(N3CCN(C)CC3)nc(Sc3ccc(NC(=O)C4CC4)cc3)n2)n[nH]1 [Tozasertib] (partner 0.1 µM) tested on NCI-H2170?
0.801
